Where these numbers come from: paper PMC9921301

Reported viability at 96 h, 50 µM values are given for each entry in this list.
test: Cell viability assay (MTT) on normal mammary epithelial cells; assay type: cell-based; details: human, MCF-10A normal mammary gland epithelial cells, four days of incubation
Only the number, expressed in %, is required.

Previously resolved entries follow.
compound: O=C1c2[nH]c3ccc(Cl)cc3c2CN1CCc1ccccc1
quantity name: viability at 96 h, 50 µM
quantity unit: %
data value: 89

compound: O=C(O)c1[nH]c2ccc(Cl)cc2c1CNCCc1ccc(N2CCCCC2)cc1
quantity name: viability at 96 h, 50 µM
quantity unit: %
data value: 87

compound: CCOC(=O)c1[nH]c2ccc(Cl)cc2c1CNCCc1ccccc1
quantity name: viability at 96 h, 50 µM
quantity unit: %
data value: 87

compound: O=C1c2[nH]c3ccc(Cl)cc3c2CN1CCc1ccc(N2CCCCC2)cc1
quantity name: viability at 96 h, 50 µM
quantity unit: %
data value: 91

compound: CCOC(=O)c1[nH]c2ccc(Cl)cc2c1CNCCc1cccc(N2CCCCC2)c1
quantity name: viability at 96 h, 50 µM
quantity unit: %
data value: 92

compound: O=C(O)c1[nH]c2ccc(Cl)cc2c1CNCCc1ccccc1
quantity name: viability at 96 h, 50 µM
quantity unit: %
data value: 91

compound: O=C(O)c1[nH]c2ccc(Cl)cc2c1CNCCc1ccc(N2CCCC2)cc1
quantity name: viability at 96 h, 50 µM
quantity unit: %
data value: 89

compound: CCOC(=O)c1[nH]c2ccc(Cl)cc2c1CNCCc1ccc(N2CCCCC2)cc1
quantity name: viability at 96 h, 50 µM
quantity unit: %
data value: 89

Quickly give me recorded viability at 96 h, 50 µM for CCOC(=O)c1[nH]c2ccc(Cl)cc2c1CNCCc1ccc(N2CCCC2C)cc1 (centres unmarked)
90

Given CCOC(=O)c1[nH]c2ccc(Cl)cc2c1CNCCc1ccc(N2CCCC2)cc1 , respond with its viability at 96 h, 50 µM.
91

State its viability at 96 h, 50 µM for this compound: O=C1c2[nH]c3ccc(Cl)cc3c2CN1CCc1ccc(N2CCCC2)cc1
89

###

molecular target: EGFR^T790M (Homo sapiens, UniProt P00533, T790M); construct: purchased Carna Bioscience; experiment: EGFR^T790M inhibitory assay (HTRF KinEASE-TK); format: biochemical; conditions: HTRF KinEASE-TK; read-out: EGFR^T790M Inhibition IC50 ± SEM
Sequence (P00533 25-1210 T790M): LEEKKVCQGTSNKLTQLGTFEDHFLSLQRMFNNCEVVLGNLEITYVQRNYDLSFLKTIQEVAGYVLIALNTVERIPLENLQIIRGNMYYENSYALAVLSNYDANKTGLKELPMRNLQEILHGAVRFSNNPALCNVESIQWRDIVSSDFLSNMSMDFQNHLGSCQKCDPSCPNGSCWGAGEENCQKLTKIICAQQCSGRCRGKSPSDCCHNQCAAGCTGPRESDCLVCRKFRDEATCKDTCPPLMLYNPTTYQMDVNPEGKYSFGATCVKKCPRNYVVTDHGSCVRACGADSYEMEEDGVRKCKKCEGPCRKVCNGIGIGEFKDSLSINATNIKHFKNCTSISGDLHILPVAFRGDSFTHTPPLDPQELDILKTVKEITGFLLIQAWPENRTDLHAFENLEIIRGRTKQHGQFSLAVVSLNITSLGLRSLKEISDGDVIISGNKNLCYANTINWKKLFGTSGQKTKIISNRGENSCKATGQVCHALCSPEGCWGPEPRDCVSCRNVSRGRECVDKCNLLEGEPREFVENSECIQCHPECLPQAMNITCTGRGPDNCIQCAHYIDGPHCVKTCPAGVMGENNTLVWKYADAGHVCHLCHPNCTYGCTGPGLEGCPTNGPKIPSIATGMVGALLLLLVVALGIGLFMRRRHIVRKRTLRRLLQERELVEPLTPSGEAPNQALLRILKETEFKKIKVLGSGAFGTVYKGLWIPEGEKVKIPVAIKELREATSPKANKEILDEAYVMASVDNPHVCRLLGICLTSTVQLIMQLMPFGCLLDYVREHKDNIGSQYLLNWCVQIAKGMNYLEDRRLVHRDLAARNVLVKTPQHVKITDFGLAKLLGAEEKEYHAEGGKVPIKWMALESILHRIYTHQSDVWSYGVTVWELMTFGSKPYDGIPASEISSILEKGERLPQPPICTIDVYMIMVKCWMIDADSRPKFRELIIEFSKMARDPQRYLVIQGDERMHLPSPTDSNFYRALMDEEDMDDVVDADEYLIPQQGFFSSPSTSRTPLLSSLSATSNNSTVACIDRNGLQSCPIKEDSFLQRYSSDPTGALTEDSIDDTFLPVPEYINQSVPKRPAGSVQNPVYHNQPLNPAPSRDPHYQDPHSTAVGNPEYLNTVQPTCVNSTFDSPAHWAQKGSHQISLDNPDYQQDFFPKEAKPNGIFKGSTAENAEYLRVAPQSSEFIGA
quantity name: pIC50
By convention, pIC50 is the negative base-10 log of a molar concentration.

query smiles: CCOC(=O)c1[nH]c2ccc(Cl)cc2c1CNCCc1ccc(N2CCCC2)cc1
pIC50: 8.04

Let us examine a further case.
Identify pIC50 associated with the compound CCOC(=O)c1[nH]c2ccc(Cl)cc2c1CNCCc1cccc(N2CCCCC2)c1
8.07

###

tested on: HT-29 (colon cancer cell line); test: Antiproliferative assay, HT-29; type: cell-based; conditions: Homo sapiens, read-out: Antiproliferative Activity IC50 ± SEM HT-29
pIC50: recorded values
Formally, pIC50 is defined as -log10 of the concentration c, with c in mol/L.

compound: CCOC(=O)c1[nH]c2ccc(Cl)cc2c1CNCCc1ccc(N2CCCC2)cc1
system: HT-29 (colon cancer cell line)
pIC50: 7.49

compound: O=C1c2[nH]c3ccc(Cl)cc3c2CN1CCc1ccc(N2CCCCC2)cc1
system: HT-29 (colon cancer cell line)
pIC50: 7.24

compound: CCOC(=O)c1[nH]c2ccc(Cl)cc2c1CNCCc1ccccc1
system: HT-29 (colon cancer cell line)
pIC50: 7.44

compound: O=C1c2[nH]c3ccc(Cl)cc3c2CN1CCc1ccccc1
system: HT-29 (colon cancer cell line)
pIC50: 7.31

compound: CCOC(=O)c1[nH]c2ccc(Cl)cc2c1CNCCc1cccc(N2CCCCC2)c1
system: HT-29 (colon cancer cell line)
pIC50: 7.52

compound: O=C1c2[nH]c3ccc(Cl)cc3c2CN1CCc1ccc(N2CCCC2)cc1
system: HT-29 (colon cancer cell line)
pIC50: 7.18

compound: O=C(O)c1[nH]c2ccc(Cl)cc2c1CNCCc1ccc(N2CCCCC2)cc1
system: HT-29 (colon cancer cell line)
pIC50: 7.12

compound: O=C(O)c1[nH]c2ccc(Cl)cc2c1CNCCc1ccc(N2CCCC2)cc1
system: HT-29 (colon cancer cell line)
pIC50: 7.17

compound: CCOC(=O)c1[nH]c2ccc(Cl)cc2c1CNCCc1ccc(N2CCCCC2)cc1
system: HT-29 (colon cancer cell line)
pIC50: 7.36

compound: O=C(O)c1[nH]c2ccc(Cl)cc2c1CNCCc1ccccc1
system: HT-29 (colon cancer cell line)
pIC50: 7.11

Now for the compound whose pIC50 we want.
Consider the compound CCOC(=O)c1[nH]c2ccc(Cl)cc2c1CNCCc1ccc(N2CCCC2C)cc1 (centres unmarked) . State its measured pIC50.
7.42

###

target: UniProt:P00533; assay: EGFR-TK inhibitory assay
quantity name: IC50 (nM)
# output: bare number, implied unit nM

Worked cases, answers included:
compound: CCOC(=O)c1[nH]c2ccc(Cl)cc2c1CNCCc1ccc(N2CCCC2)cc1 [Compound 3b]
quantity name: IC50
quantity unit: nM
data value: 74
//
compound: CCOC(=O)c1[nH]c2ccc(Cl)cc2c1CNCCc1ccc(N2CCCCC2)cc1 [Compound 3c]
quantity name: IC50
quantity unit: nM
data value: 89
//
compound: CCOC(=O)c1[nH]c2ccc(Cl)cc2c1CNCCc1cccc(N2CCCCC2)c1 [Compound 3e]
quantity name: IC50
quantity unit: nM
data value: 68
//
compound: CCOC(=O)c1[nH]c2ccc(Cl)cc2c1CNCCc1ccccc1 [Compound 3a]
quantity name: IC50
quantity unit: nM
data value: 85

Now for the compound whose IC50 we want.
For the compound CCOC(=O)c1[nH]c2ccc(Cl)cc2c1CNCCc1ccc(N2CCCC2C)cc1 (centres unmarked) [Compound 3d] , give its reported IC50.
82

###

tested on: MCF-7 (breast cancer cell line); assay: Antiproliferative assay, MCF-7; format: cell-based; settings: Homo sapiens, MCF7; read-out: Antiproliferative Activity IC50 ± SEM MCF-7
quantity name: pIC50
Entry type: numeric. Quantity: pIC50, the -log10 of concentration in molar units.

compound: CCOC(=O)c1[nH]c2ccc(Cl)cc2c1CNCCc1ccc(N2CCCCC2)cc1 [Compound 3c]
quantity name: pIC50
data value: 7.35
--
compound: O=C(O)c1[nH]c2ccc(Cl)cc2c1CNCCc1ccc(N2CCCCC2)cc1 [Compound 4c]
quantity name: pIC50
data value: 7.14
--
compound: CCOC(=O)c1[nH]c2ccc(Cl)cc2c1CNCCc1ccc(N2CCCC2)cc1 [Compound 3b]
quantity name: pIC50
data value: 7.49
--
compound: CCOC(=O)c1[nH]c2ccc(Cl)cc2c1CNCCc1ccccc1 [Compound 3a]
quantity name: pIC50
data value: 7.46
--
compound: CCOC(=O)c1[nH]c2ccc(Cl)cc2c1CNCCc1ccc(N2CCCC2C)cc1 (centres unmarked) [Compound 3d]
quantity name: pIC50
data value: 7.40
--
compound: O=C(O)c1[nH]c2ccc(Cl)cc2c1CNCCc1ccc(N2CCCC2)cc1 [Compound 4b]
quantity name: pIC50
data value: 7.16
--
compound: O=C1c2[nH]c3ccc(Cl)cc3c2CN1CCc1ccc(N2CCCCC2)cc1 [Compound 5c]
quantity name: pIC50
data value: 7.28
--
compound: O=C1c2[nH]c3ccc(Cl)cc3c2CN1CCc1ccc(N2CCCC2)cc1 [Compound 5b]
quantity name: pIC50
data value: 7.21
--
compound: O=C(O)c1[nH]c2ccc(Cl)cc2c1CNCCc1ccccc1 [Compound 4a]
quantity name: pIC50
data value: 7.10
--
compound: O=C1c2[nH]c3ccc(Cl)cc3c2CN1CCc1ccccc1 [Compound 5a]
quantity name: pIC50
data value: 7.32

Shift focus to the following entry.
Read the entry CCOC(=O)c1[nH]c2ccc(Cl)cc2c1CNCCc1cccc(N2CCCCC2)c1 [Compound 3e] and write its reported pIC50.
7.52

###

molecular target: BRAF^V600E (Mus musculus, UniProt P28028, V585E); construct: Mouse full-length GST-tagged; GST; assay: V600E mutant BRAF kinase assay; details: read-out: BRAF^V600E Inhibition IC50 ± SEM
Sequence (P28028 whole entry V585E): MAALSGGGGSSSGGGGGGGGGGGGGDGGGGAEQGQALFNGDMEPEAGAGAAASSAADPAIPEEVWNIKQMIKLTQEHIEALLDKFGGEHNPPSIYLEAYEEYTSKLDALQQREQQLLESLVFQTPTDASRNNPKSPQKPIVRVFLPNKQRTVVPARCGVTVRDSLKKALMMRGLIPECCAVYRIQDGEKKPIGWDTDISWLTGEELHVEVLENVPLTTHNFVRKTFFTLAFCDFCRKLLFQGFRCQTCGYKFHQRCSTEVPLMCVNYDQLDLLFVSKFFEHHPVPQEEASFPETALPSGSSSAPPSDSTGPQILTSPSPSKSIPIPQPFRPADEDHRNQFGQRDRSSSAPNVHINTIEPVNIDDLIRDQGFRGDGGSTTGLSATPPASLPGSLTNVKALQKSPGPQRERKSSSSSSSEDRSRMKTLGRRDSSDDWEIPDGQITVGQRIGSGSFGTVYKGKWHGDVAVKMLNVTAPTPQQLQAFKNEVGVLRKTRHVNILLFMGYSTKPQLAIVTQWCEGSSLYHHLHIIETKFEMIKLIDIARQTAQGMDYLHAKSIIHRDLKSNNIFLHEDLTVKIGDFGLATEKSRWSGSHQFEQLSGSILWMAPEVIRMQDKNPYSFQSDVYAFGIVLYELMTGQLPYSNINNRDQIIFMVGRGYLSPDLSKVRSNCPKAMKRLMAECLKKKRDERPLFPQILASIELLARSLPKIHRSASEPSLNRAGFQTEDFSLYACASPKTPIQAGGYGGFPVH
quantity name: IC50
Returns: string containing the numeric result and its unit.

compound: CCOC(=O)c1[nH]c2ccc(Cl)cc2c1CNCCc1ccccc1
system: BRAF^V600E (Mus musculus, UniProt P28028, V585E)
IC50: 43 nM
--
compound: CCOC(=O)c1[nH]c2ccc(Cl)cc2c1CNCCc1ccc(N2CCCCC2)cc1
system: BRAF^V600E (Mus musculus, UniProt P28028, V585E)
IC50: 67 nM
--
compound: CCOC(=O)c1[nH]c2ccc(Cl)cc2c1CNCCc1ccc(N2CCCC2C)cc1 (centres unmarked)
system: BRAF^V600E (Mus musculus, UniProt P28028, V585E)
IC50: 54 nM
--
compound: CCOC(=O)c1[nH]c2ccc(Cl)cc2c1CNCCc1ccc(N2CCCC2)cc1
system: BRAF^V600E (Mus musculus, UniProt P28028, V585E)
IC50: 39 nM

Now turn to the next compound.
Hello, please tell me recorded IC50 for this one: CCOC(=O)c1[nH]c2ccc(Cl)cc2c1CNCCc1cccc(N2CCCCC2)c1
35 nM
